Experiment notes: NCI Yeast Anticancer Drug Screen. Data for the bub3 strain (AID 167)
Measurement setup: S. cerevisiae bub3 mutant strain, at 50.0 µM, stronger effect = higher value
The panel holds about 79,000 compounds, 15% with a hit somewhere; the sample as a whole holds those more often. Where a SMILES comes first, the peptide text is derived from it. [ ]: non-standard residue; d: D form. The star is where a group is joined. NMeAc5c = CNC1(C(=O)O)CCCC1; Boc = CC(C)(C)OC(=O)*; OBn = c1ccc(CO*)cc1
For each record, write down the corresponding growth inhibition.
Give bare numbers, in %.

Compound	Measured parameter	Quantity unit	Numeric value
CCN(C(=O)CCl)c1ccccc1	growth inhibition	%	-7.25
CN(C)c1ccc(/C=N/NC(=S)Nc2cccc3cccnc23)cc1	growth inhibition	%	20.6
COC(=O)NCC(OC(=O)c1cc2c(cc1I)OCO2)C1=CCCCC1 (stereo not given)	growth inhibition	%	48.8
CC(=O)OC1CCC2(C)C3=CCC4(C)C(C(C)=O)=CCC4C3CCC2C1 (stereo not given)	growth inhibition	%	-22.9
O=C(NCCCl)NC(Cc1ccccc1)Cc1ccccc1	growth inhibition	%	2.1
O=C(NCc1ccccc1)C1C2CCC(C2)C1C(=O)NCc1ccccc1 (stereo not given)	growth inhibition	%	22.9
c1ccc2c(c1)ncn2C1CCCCO1 (stereo not given)	growth inhibition	%	-7.45
CN(C(=O)C(Cc1ccccc1)NC(=O)OC(C)(C)C)C1(C(=O)NC(Cc2ccccc2)C(=O)OCc2ccccc2)CCCC1 (stereo not drawn) (Boc-Phe-[NMeAc5c]-Phe-OBn; configuration not given here)	growth inhibition	%	8.6
N#CC1(N)c2ccccc2-c2ccccc21	growth inhibition	%	3.65

Now for another entry.
// query Dear colleague, please send me the reported growth inhibition for "O=C1c2ccccc2-c2nc(-c3cccs3)cc3c2c1nc1ccccc13" when you can.
// result 25
